B1: POU domain, class 2, transcription factor 2, residues 200 to 269; numbered along this chain, P09086 (parent)
chain: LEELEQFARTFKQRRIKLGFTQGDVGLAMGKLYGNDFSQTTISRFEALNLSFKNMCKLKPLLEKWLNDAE

- Variants of: B1
- protocol-text: abundance fitness (aPCA) (normalised: wild type 0, dead -1); higher = more abundant; growth selection in yeast, the domain comes from the species named
- measurement-setup: Homo sapiens
measured-parameter: abundance fitness

Record excerpt, results attached:
change | result
E70R | -0.164
G30W | -0.013
T10V | -0.04

Measured abundance fitness of `G30C` : -0.068

The recorded abundance fitness for entry `N49E` equals 0.07

Memo: `L48M` , reported abundance fitness: -0.031

Record `I16G` , field abundance fitness: -0.095

Item: `A69S` | abundance fitness: -0.046

Entry `L50G` , abundance fitness reported as -0.116

What the record says about `Q6R` : abundance fitness is -0.019

Consider `E5C` . Its measured abundance fitness is -0.07

So, `K64Y` ? Its abundance fitness was -0.24

Record `L32M` , field abundance fitness: -0.021

Per the records, this variant ( `N35S` ) has abundance fitness equal to -0.078

// field: abundance fitness; key: `E2K` ; value = -0.02

The variant `T21Y` showed abundance fitness equal to -0.77
